STUDY TARGET: cellular PARG (Homo sapiens)
Construct: endogenous in cells
Sequence (Q86W56 whole entry): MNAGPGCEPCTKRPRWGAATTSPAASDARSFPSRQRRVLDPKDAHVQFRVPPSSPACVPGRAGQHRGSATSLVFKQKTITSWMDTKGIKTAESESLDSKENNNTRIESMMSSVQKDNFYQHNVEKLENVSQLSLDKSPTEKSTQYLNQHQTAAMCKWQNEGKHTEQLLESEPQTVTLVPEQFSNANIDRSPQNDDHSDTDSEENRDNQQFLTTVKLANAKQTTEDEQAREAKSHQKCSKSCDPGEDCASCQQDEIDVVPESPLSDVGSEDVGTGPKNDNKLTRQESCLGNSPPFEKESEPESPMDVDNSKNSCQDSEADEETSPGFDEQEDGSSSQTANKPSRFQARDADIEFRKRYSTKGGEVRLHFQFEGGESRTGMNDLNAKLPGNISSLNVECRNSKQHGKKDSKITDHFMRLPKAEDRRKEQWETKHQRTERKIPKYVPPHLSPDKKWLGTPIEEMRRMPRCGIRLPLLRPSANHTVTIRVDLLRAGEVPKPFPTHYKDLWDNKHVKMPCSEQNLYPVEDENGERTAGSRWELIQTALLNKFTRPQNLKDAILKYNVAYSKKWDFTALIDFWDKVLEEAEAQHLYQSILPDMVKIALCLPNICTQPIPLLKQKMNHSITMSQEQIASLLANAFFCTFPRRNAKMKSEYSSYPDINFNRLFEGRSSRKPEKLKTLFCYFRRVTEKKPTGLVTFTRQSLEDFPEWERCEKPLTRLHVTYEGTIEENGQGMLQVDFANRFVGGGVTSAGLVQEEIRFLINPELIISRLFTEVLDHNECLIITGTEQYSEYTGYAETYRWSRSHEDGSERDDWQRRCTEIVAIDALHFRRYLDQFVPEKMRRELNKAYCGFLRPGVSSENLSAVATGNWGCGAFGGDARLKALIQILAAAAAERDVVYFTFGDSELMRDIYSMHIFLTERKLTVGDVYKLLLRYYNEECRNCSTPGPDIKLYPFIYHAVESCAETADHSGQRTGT
TEST DETAILS: Nuclear PAR accumulation assay (immunofluorescence high-content imaging)
CONDITION CONTEXT: HeLa cells, 1 hour compound treatment then MMS 50 μg/mL for an additional hour
Entries and their IC50 values follow.

- STRUCTURE NOTATION: "[2H]C([2H])(c1cnn(C)c1)N1C(=O)c2cc(S(=O)(=O)NC3(C)CC3)ccc2N2C1=NC[C@H]2C"
  IC50: "≤ 100 nM"
- STRUCTURE NOTATION: "C[C@@H]1CN=C2N(Cc3cnn(C)c3)C(=O)c3cc(S(=O)(=O)NC4(C)CC4)cc(N4CCN(C(=O)N(C)C)CC4)c3N21"
  IC50: "≤ 100 nM"
- STRUCTURE NOTATION: "CC[C@@H]1CN=C2N(CC)C(=O)c3cc(S(=O)(=O)NC4(C)CC4)ccc3N21"
  IC50: "100 to 1000 nM"
- STRUCTURE NOTATION: "Cn1cc(CN2C(=O)c3cc(S(=O)(=O)NC4(C)CC4)ccc3N3C2=NC[C@H]3C(F)(F)F)cn1"
  IC50: "≤ 100 nM"
- STRUCTURE NOTATION: "C[C@@H]1CN=C2N(Cc3cn[nH]c3)C(=O)c3cc(S(=O)(=O)NC4(C)CC4)ccc3N21"
  IC50: "100 to 1000 nM"
- STRUCTURE NOTATION: "C#C[C@@H]1CN=C2N(Cc3cnc(C)s3)C(=O)c3cc(S(=O)(=O)NC4(C)CC4)ccc3N21"
  IC50: "≤ 100 nM"
- STRUCTURE NOTATION: "C[C@@H]1CN=C2N(Cc3cnn(C(F)F)c3)C(=O)c3cc(S(=O)(=O)NC4(C)CC4)ccc3N21"
  IC50: "≤ 100 nM"
- STRUCTURE NOTATION: "C[C@H]1CCN=C2N(Cc3cnn(C)c3)C(=O)c3cc(S(=O)(=O)NC4(C)CC4)ccc3N21"
  IC50: "≤ 100 nM"
